Test system: 596521-263-R-J1-PDC complex spheroids, viability % of control
Test: Anticancer human tumor 596521-263-R-J1-PDC patient-derived soft tissue sarcoma cell line growth inhibition [GQUAD]
Conditions: second compound 0.0316 µM; first compound 0.0316 µM; stronger effect = lower value
measurement type: viability, T/C (%)
Answers are plain numbers, in %.

Past entries and their recorded results:
CC1COCCN1c1cc(C2(O)CC3CCC(C2)O3)c2cnn(-c3ccn[nH]3)c2n1 (stereo not drawn) + CN(C)c1ccc(Nc2c3ccc(NC(=O)CCN4CCCC4)cc3nc3cc(NC(=O)CCN4CCCC4)ccc23)cc1 :: 72.6
COc1cccc2c1C(=O)c1c(O)c3c(c(O)c1C2=O)CC(O)(C(=O)CO)CC3OC1CC(N)C(O)C(C)O1 (stereo not drawn) + CN(C)c1ccc(Nc2c3ccc(NC(=O)CCN4CCCC4)cc3nc3cc(NC(=O)CCN4CCCC4)ccc23)cc1 :: 96.9

Below: the item to evaluate.
Input line: So what's the measured viability, T/C for this one? COc1cccc2c1C(=O)c1c(O)c3c(c(O)c1C2=O)CC(O)(C(=O)CO)CC3OC1CC(N)C(O)C(C)O1 (stereo not drawn) + Cc1[nH]c2ccc(F)cc2c1-c1nc2c3cccnc3c3ncccc3c2[nH]1
Output line: 98

====

Give measured pIC50 for each item. Keep answers brief.
Test system: 596521-263-R-J1-PDC complex spheroids, viability % of control
Assay: Anticancer human tumor 596521-263-R-J1-PDC cell line growth inhibition [GQUAD];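 also: spheroids exposed to drugs for 7 days before viability reading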
Settings: curve of first compound; second compound 0.316 µM
pIC50: −log10 of the molar value.

Worked examples follow.
COc1cc(C2c3cc4c(cc3C(OC3OC5COC(C)OC5C(O)C3O)C3COC(=O)C23)OCO4)cc(OC)c1O (stereo not drawn) + Cc1[nH]c2ccc(F)cc2c1-c1nc2c3cccnc3c3ncccc3c2[nH]1 :: < 5.00
CC(C)n1c(=O)n(C)c2cnc3cc(F)c(-c4ccc(OCCCN5CCCCC5)nc4)cc3c21 + CN(C)c1ccc(Nc2c3ccc(NC(=O)CCN4CCCC4)cc3nc3cc(NC(=O)CCN4CCCC4)ccc23)cc1 :: < 5.00

Moving on to the next compound.
Input line: I would be grateful if you could share the reported pIC50 for Cc1[nH]c2ccccc2c1CCNCc1ccc(/C=C/C(=O)NO)cc1 + Cc1[nH]c2ccc(F)cc2c1-c1nc2c3cccnc3c3ncccc3c2[nH]1 .
Output line: < 6.50

====

What pIC50 was measured for each of the following?
Test system: 596521-263-R-J1-PDC complex spheroids, viability % of control
Assay: Anticancer human tumor 596521-263-R-J1-PDC cell line growth inhibition [GQUAD];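 also: spheroids exposed to drugs for 7 days before viability reading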
Conditions: curve of first compound; second compound 0.316 µM
pIC50: −log10 of the molar value.

For every item in the list below, what is its measured pIC50?
1. C=CC(=O)N1CCN(c2nc(=O)n(-c3c(C)ccnc3C(C)C)c3nc(-c4c(O)cccc4F)c(F)cc23)C(C)C1 (stereo not drawn) + CN(C)c1ccc(Nc2c3ccc(NC(=O)CCN4CCCC4)cc3nc3cc(NC(=O)CCN4CCCC4)ccc23)cc1
2. O=c1[nH]cc(F)c(=O)[nH]1 + CN(C)c1ccc(Nc2c3ccc(NC(=O)CCN4CCCC4)cc3nc3cc(NC(=O)CCN4CCCC4)ccc23)cc1
3. CC(C)(O)C1CCC(Nc2ccc3ncc(-c4cccc(C(F)(F)F)c4)n3n2)CC1 (stereo not drawn) + Cc1[nH]c2ccc(F)cc2c1-c1nc2c3cccnc3c3ncccc3c2[nH]1

Output line:
["< 5.00", "< 5.00", "< 5.00"]
